# measured.target: UniProt Q8VGC6
# Sequence (whole entry): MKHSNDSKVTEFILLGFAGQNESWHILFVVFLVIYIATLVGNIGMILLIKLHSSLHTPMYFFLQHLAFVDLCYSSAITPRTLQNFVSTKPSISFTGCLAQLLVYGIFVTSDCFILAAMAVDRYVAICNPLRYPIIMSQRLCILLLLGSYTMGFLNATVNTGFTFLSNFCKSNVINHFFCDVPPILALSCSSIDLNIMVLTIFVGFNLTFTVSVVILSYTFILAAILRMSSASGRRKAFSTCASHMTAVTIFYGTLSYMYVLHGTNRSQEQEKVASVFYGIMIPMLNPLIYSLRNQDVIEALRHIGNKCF
# condition.summary: stereoisomer not certain
Permitted responses: active, inactive

CCCCCC(=Cc1ccccc1)C(OC)OC: inactive
C=C(C)C1CCC2(C)OC2C1 (stereo unspecified): inactive
COc1nccnc1C(C)C: inactive
CCCCCC=O: inactive
CCCCCCC(C)O (stereo unspecified): inactive
CCCCCCCOC(=O)C(C)C: inactive

Incoming: Please share the test call associated with `CCSSCC` .
Outgoing: inactive

Incoming: Please share the test call associated with C=C1C2CCC(C2)C1(C)C (stereo unspecified) .
Outgoing: inactive

Incoming: Please share the test call associated with `Cc1ccccc1OC(=O)C(C)C` .
Outgoing: inactive

Incoming: Please share the test call associated with `CCC(=O)OC` .
Outgoing: inactive

Incoming: Please share the test call associated with `Cc1ccc(C(C)C)c(O)c1` .
Outgoing: inactive

Incoming: Please share the test call associated with `COc1nccnc1C` .
Outgoing: inactive

Incoming: Please share the test call associated with `c1ccc2ncccc2c1` .
Outgoing: inactive

Incoming: Please share the test call associated with `O=C(c1ccccc1)c1ccccc1` .
Outgoing: inactive

Incoming: Please share the test call associated with `O=C(O)CCCCCCCCC(=O)O` .
Outgoing: inactive

Incoming: Please share the test call associated with C=C(C)C1CCC(C)C(=O)C1 (stereo unspecified) .
Outgoing: active

====

# measured.target: UniProt Q8VH10
# Sequence (Q8VH10 as listed by the source): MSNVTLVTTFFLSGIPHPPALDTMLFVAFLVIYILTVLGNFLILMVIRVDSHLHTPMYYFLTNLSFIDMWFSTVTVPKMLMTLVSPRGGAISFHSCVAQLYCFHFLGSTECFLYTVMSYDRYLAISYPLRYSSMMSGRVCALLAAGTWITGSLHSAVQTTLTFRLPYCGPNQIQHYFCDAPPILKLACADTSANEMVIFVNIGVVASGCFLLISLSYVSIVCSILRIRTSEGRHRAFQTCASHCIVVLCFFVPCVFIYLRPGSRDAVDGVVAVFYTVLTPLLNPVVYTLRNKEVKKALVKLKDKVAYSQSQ
# condition.summary: stereoisomer not certain
assay.metric: odorant receptor agonist call

CCC(=O)C(=O)CC: inactive
CC(C)=CCCC(C)=CCO: inactive
CCCCCCCCCS: inactive

====

# measured.target: OR10J5 (Homo sapiens)
# Sequence (whole entry): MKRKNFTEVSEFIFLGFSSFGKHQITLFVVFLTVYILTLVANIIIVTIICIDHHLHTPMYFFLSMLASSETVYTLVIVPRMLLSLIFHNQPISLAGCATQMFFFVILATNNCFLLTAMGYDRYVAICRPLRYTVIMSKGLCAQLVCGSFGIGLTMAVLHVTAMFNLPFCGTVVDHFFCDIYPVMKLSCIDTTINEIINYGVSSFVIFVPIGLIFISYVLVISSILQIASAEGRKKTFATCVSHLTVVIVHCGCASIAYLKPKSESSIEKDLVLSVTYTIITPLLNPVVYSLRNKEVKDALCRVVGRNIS
# condition.summary: stereoisomer not certain
Permitted responses: class 1 (active), class 0 (inactive)

Illustrative cases are given below, each with its answer.
CCCCCCOC(C)=O: class 0
CCC1OC(=O)C(O)=C1C (stereo not given): class 0
CCCCC(C)=O: class 0
CCCCCCCC(=O)[O-].[H+]: class 0
CCCCCC=O: class 0

Incoming: Please share the test call associated with `CCCCCCCCCC(=O)[O-].[H+]` .
Outgoing: class 0

Incoming: Please share the test call associated with `CC(=O)c1c(C)c([N+](=O)[O-])c(C(C)(C)C)c([N+](=O)[O-])c1C` .
Outgoing: class 0

Incoming: Please share the test call associated with `CCCCCCO` .
Outgoing: class 0

Incoming: Please share the test call associated with `CCCCCCCCCS` .
Outgoing: class 0

Incoming: Please share the test call associated with CC(CO)CS (stereo not given) .
Outgoing: class 0

Incoming: Please share the test call associated with `CC(=O)Oc1ccccc1` .
Outgoing: class 0

Incoming: Please share the test call associated with `CCCCCOC(=O)CCCCC` .
Outgoing: class 0

Incoming: Please share the test call associated with CC1=C(O)C(=O)OC1C (stereo not given) .
Outgoing: class 0

Incoming: Please share the test call associated with `CCCCCC1=C(C)CCC1=O` .
Outgoing: class 0

Incoming: Please share the test call associated with `CCCC(C)=O` .
Outgoing: class 0

Incoming: Please share the test call associated with CC1CCCCCCCCCCCCC(=O)C1 (stereo not given) .
Outgoing: class 0

Incoming: Please share the test call associated with `CCC(=O)O` .
Outgoing: class 0

Incoming: Please share the test call associated with `CC(=O)OCc1ccccc1` .
Outgoing: class 0

Incoming: Please share the test call associated with `CCCCCCCC(C)=O` .
Outgoing: class 0

Incoming: Please share the test call associated with CCCCOC(=O)C(C)OC(=O)CCC (stereo not given) .
Outgoing: class 0

Incoming: Please share the test call associated with `CCCCC(=O)CC` .
Outgoing: class 0

Incoming: Please share the test call associated with `O=c1ccc2ccccc2o1` .
Outgoing: class 0

Incoming: Please share the test call associated with `CCCCCCCCC(=O)O` .
Outgoing: class 0

Incoming: Please share the test call associated with CCCCC(S)C(C)CO (stereo not given) .
Outgoing: class 1

Incoming: Please share the test call associated with `CCCCCCCCS` .
Outgoing: class 0

Incoming: Please share the test call associated with `Cc1cnc(C)c(C)n1` .
Outgoing: class 0

Incoming: Please share the test call associated with `O=C1CCOc2ccccc21` .
Outgoing: class 0

====

# measured.target: UniProt Q9WU86
# Sequence (whole entry): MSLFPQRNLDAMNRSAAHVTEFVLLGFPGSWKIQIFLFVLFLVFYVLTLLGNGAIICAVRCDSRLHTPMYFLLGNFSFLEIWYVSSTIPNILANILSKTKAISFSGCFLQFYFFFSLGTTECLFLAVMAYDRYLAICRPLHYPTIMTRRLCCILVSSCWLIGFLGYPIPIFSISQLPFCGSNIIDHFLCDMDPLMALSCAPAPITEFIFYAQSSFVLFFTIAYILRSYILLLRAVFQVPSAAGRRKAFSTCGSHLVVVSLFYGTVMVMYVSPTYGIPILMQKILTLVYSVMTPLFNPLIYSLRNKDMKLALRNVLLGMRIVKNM
# condition.summary: stereoisomer not certain
assay.metric: odorant receptor agonist call

Guide cases for odorant receptor agonist call, answers given:
C=CCOC(=O)CCCCCC: inactive
CCCCCCO: inactive
O=c1ccc2ccccc2o1: active
CCCCOC=O: inactive
CC(=O)Oc1ccccc1: active

Record `O=C1Cc2ccccc2O1` , field odorant receptor agonist call: inactive

Record `CCCCCC1=C(C)CCC1=O` , field odorant receptor agonist call: inactive

Record `CCCCCCCCCS` , field odorant receptor agonist call: inactive

Record `CCOC(=O)C(C)C` , field odorant receptor agonist call: inactive

Record `CCCCC(=O)CC` , field odorant receptor agonist call: inactive

====

# measured.target: OR2C1 (Homo sapiens)
# Sequence (whole entry): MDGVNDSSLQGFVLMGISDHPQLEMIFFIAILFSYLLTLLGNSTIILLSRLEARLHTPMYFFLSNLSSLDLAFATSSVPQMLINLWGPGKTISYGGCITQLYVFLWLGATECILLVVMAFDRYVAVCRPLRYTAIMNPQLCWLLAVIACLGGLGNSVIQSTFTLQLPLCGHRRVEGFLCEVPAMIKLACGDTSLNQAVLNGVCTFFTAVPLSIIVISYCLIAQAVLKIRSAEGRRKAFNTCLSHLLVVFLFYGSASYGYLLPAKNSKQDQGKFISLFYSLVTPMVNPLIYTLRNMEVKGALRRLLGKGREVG
# condition.summary: stereoisomer not certain
assay.metric: odorant receptor agonist call

CCCCCCCCO: inactive
CCCCC(=O)O: inactive
CC(=O)c1c(C)c([N+](=O)[O-])c(C(C)(C)C)c([N+](=O)[O-])c1C: inactive
CCCC(=O)C(C)=O: inactive
CCCCCCCC(C)=O: inactive

So the reported odorant receptor agonist call for C=C(C)C1CCC(C)C(=O)C1 (stereo unspecified) , on OR2C1 (Homo sapiens), turned out to be inactive

So the reported odorant receptor agonist call for CCCC(S)CCOC(C)=O (stereo unspecified) , on OR2C1 (Homo sapiens), turned out to be inactive

So the reported odorant receptor agonist call for CC1=NC(C)C(C)S1 (stereo unspecified) , on OR2C1 (Homo sapiens), turned out to be inactive

====

# measured.target: OR2J2 (Homo sapiens)
# condition.summary: stereoisomer not certain
Permitted responses: true = active, false = inactive

CCCC(=O)C(C)=O: false
CCCC(C)=O: false
CCCCCCCCCO: true
CCCCCCCCC(=O)O: false
CCCCCCC=CCCC=O: false
CC(C)=CCCC(C)=CCO: false

Incoming: Please share the test call associated with `COc1cc(C(=O)O)ccc1O` .
Outgoing: false

Incoming: Please share the test call associated with `CCCCCCOC(C)=O` .
Outgoing: false

====

# measured.target: OR2W1 (Homo sapiens)
# condition.summary: stereoisomer not certain
Permitted responses: Y for active, N for inactive

Illustrative cases are given below, each with its answer.
Cc1c[nH]c2ccccc12: N
CC1=CCC2CC1C2(C)C (stereo not drawn): N
CC(C)(S)CCOC=O: Y
CC=CC(=O)C(C)CC (stereo not drawn): N

Incoming: Please share the test call associated with `O=C(O)C=Cc1ccc(O)cc1` .
Outgoing: N

Incoming: Please share the test call associated with `c1coc(CSCc2ccco2)c1` .
Outgoing: Y

Incoming: Please share the test call associated with `CCCC(=O)OC` .
Outgoing: Y

Incoming: Please share the test call associated with `CCCCC(=O)CC` .
Outgoing: Y

Incoming: Please share the test call associated with CC1=C(O)C(=O)C(C)O1 (stereo not drawn) .
Outgoing: N

Incoming: Please share the test call associated with `OCCc1ccccc1` .
Outgoing: Y
